assay: Lipophilicity by reversed-phase TLC on RP-18 WF254s plates with standardization; conditions: methanol/water
R M0 (lipophilicity extrapolated to 100 % water) vs 1: less than gives Condition met; not less than gives Condition not met.

Illustrative cases are given below, each with its answer.
O=C1Nc2ccccc2C1=O [Isatine, isatine, reference compound]; Condition met
O=c1ccc2ccc(O)cc2o1 [Compound 7, umbelliferone]; Condition met
O=[N+]([O-])c1ccccc1O [2-Nitrophenol, 2-nitrophenol, reference compound]; Condition not met

Query: Is the reported R M0 (lipophilicity extrapolated to 100 % water) for Nc1ccc(Cl)cc1Cl [2,4-Dichloroaniline, 2,4-dichloroaniline, reference compound] strictly below 1?
Reply: Condition not met

Query: Consider the compound Nc1ccc(Cl)c(Cl)c1 [3,4-Dichloroaniline, 3,4-dichloroaniline, reference compound] . Is its R M0 (lipophilicity extrapolated to 100 % water) strictly less than 1?
Reply: Condition not met

###

assay: Lipophilicity by reversed-phase TLC on RP-18 WF254s plates with standardization; conditions: acetonitrile/water, molar fraction for which lipophilicity equals 0
metric name: φ 0 (intercept of the trend line with abscissa axis)
Numbers only.

These solved cases illustrate the format of a correct answer.
N#CCOc1cc(=O)oc2ccccc12; 0.438
Cc1cc(O)c2c(C)cc(=O)oc2c1 [Compound 2, 5-hydroxy-4,7-dimethylcoumarin]; 0.437

Next:
Query: Please indicate φ 0 (intercept of the trend line with abscissa axis) recorded for `CC(=O)c1c(C)cc2oc(=O)cc(C)c2c1OCC#N`
Reply: 0.517

###

Consider the following molecules; for each one, report its S (slope of the trend line RM vs φ).
test: Lipophilicity by reversed-phase TLC on RP-18 WF254s plates with standardization; details: isopropanol/water
Give bare numbers.

Nc1ccc(Cl)c(Cl)c1 [3,4-Dichloroaniline, 3,4-dichloroaniline, reference compound]; 4.4484

Return reported S (slope of the trend line RM vs φ) values for all items listed beneath this line.
1. Cc1cc(OCC#N)c2c(C)cc(=O)oc2c1
2. O=C(c1ccccc1)c1ccccc1 [Benzophenone, benzophenone, reference compound]
3. O=[N+]([O-])c1ccccc1O [2-Nitrophenol, 2-nitrophenol, reference compound]
4. Cc1cc(O)c2c(C)cc(=O)oc2c1 [Compound 2, 5-hydroxy-4,7-dimethylcoumarin]

Reply:
2.3947
4.4575
2.9639
2.8574

###

assay: Lipophilicity by reversed-phase TLC on RP-18 WF254s plates with standardization; conditions: isopropanol/water, molar fraction for which lipophilicity equals 0
metric name: φ 0 (intercept of the trend line with abscissa axis)
Answers are plain numbers.

Cc1cc(O)c2c(C)cc(=O)oc2c1 [Compound 2, 5-hydroxy-4,7-dimethylcoumarin]; 0.445
CC(=O)Oc1ccc2c(C)cc(=O)oc2c1; 0.448

Could you now consider this next compound?
Query: // fetch φ 0 (intercept of the trend line with abscissa axis) given entry CC(=O)c1c(O)ccc2c(C)cc(=O)oc12 [Compound 9, 8-Acetyl-7-hydroxy-4-methylcoumarin]
Reply: 0.446

###

Would you mind telling me the reported S (slope of the trend line RM vs φ) of each entry?
assay: Lipophilicity by reversed-phase TLC on RP-18 WF254s plates with standardization; conditions: dioxane/water
Numbers only.

CC(=O)c1cc2c(C)cc(=O)oc2cc1O [Compound 11, 6-Acetyl-7-hydroxy-4-methylcoumarin]; 2.5162
CC(=O)Oc1cc(C)cc2oc(=O)cc(C)c12; 3.2936

// moving on: another record for S (slope of the trend line RM vs φ)
Query: Answer with the recorded S (slope of the trend line RM vs φ) of `Cc1cc(OCC#N)c2c(C)cc(=O)oc2c1` only.
Reply: 3.2254

The measurements presented in this section are drawn from paper PMC4494852.
